# protocol-text: In vitro half-life in liver microsomes, human
# Format: in vitro ADME
# assay-context: liver microsomes, up to one hour, longer half-lives are extrapolated, n=1
# Procedure: In vitro metabolism was assessed using liver microsomes for all species. Compounds were incubated at 1 μM with liver microsomes for up to one hour. Reported half-lives greater than the total incubation time are extrapolated values. Extracts were assayed for disappearance of parent compound by LC-MS/MS detection. Data represents one independent experiment conducted.
endpoint-label: half-life at 1 μM (min)

1. CO[P@](=O)(c1cc(C)cc(/C=C/C#N)c1)c1c(C(N)=O)[nH]c2ccc(Cl)cc12 [Compound III]; 154

###

# study-target: HIV-1 RT V1081 (V108I) mutant enzyme (Human immunodeficiency virus type 1 group M subtype B, UniProt P03366, V707I)
# Construct: Antiviral in vitro activity against site-directed mutant HIV-1 RT enzymes
# protocol-text: biochemical
pIC50: −log10 of the molar value.
endpoint-label: pIC50

1. CO[P@](=O)(c1cc(C)cc(/C=C/C#N)c1)c1c(C(N)=O)[nH]c2ccc(Cl)c(F)c12; 5.92
2. CO[P@](=O)(c1cc(C)cc(/C=C/C#N)c1)c1c(C(N)=O)[nH]c2ccc(Cl)cc12; 6.08
